# Test system: DU-145 prostate
# PROTOCOL DESCRIPTION: NCI-60 one-dose screen, 48 h (100 = growth as untreated, 0 = no growth, -100 = all killed)
# MEASUREMENT CONDITIONS: 10 µM unless noted
The panel holds about 83,000 compounds, 20% with a hit somewhere; the sample as a whole holds those more often.
MEASUREMENT LABEL: growth (%)
Numbers only, in %.

Consider the reported growth for these molecules:
1. COc1cc(-n2nc(C(=O)Nc3ccc(C(=O)O)cc3)nc2-c2ccccc2)cc(OC)c1OC; 70.6
2. CCOC(=O)c1ccccc1NC(c1ccccc1)c1ccc2cccnc2c1O (stereo not given); 36.9
3. Cn1c(C(N)=O)cc2c1-c1nc(NC3CCCCC3)ncc1CCC2; 103
4. CCC(c1ccc(OC)cc1)C(CC)c1ccc(O)c(CN2CCCC2)c1 (stereo not given); 43.3
5. CCN(Cc1ccc(CN(CC)C(=O)C(Cl)(Cl)Cl)cc1)C(=O)C(Cl)(Cl)Cl; 97.7

Give measured growth for every item shown.
1. Cc1nc(Nc2cccnc2)sc1C(=O)/C=C/c1ccc(Cl)cc1
2. COC(=O)CCCCCN=Cc1c(O)c(O)c(C(C)C)c2cc(C)c(-c3c(C)cc4c(C(C)C)c(O)c(O)c(C=NCCCCCC(=O)OC)c4c3O)c(O)c12
3. NC(=O)c1ccc2c(c1)OCO2

[17.6, 23, 108]

Items follow; give growth for each.
1. CCNc1nc(N2CC(=O)Nc3cc(OC)ccc32)c2ccccc2n1
2. CCC(=O)Oc1ccc2c(c1)CC[C@@H]1[C@@H]2CC[C@]2(C)C[C@H](OC(=O)CC)C[C@@H]12

[-1.09, 79.2]

* * *

# Tested on: OVCAR-5 ovarian
# PROTOCOL DESCRIPTION: NCI-60 one-dose screen, 48 h (100 = growth as untreated, 0 = no growth, -100 = all killed)
# MEASUREMENT CONDITIONS: 10 µM unless noted
Compounds without any hit were thinned out: in the full panel of roughly 83,000, 20% have a hit. The source made the active and inactive calls. How the source made its calls: active means growth percent below 10; inactive means the rest.
I'd appreciate it if you could supply growth values for the items below.

// known answers, use as guide
1. Cc1oc2ncnc(Nc3ccccc3)c2c1C(=O)NCCO; 93.2% (inactive)
2. CCNC(=O)C1CCCN1C(=O)C(CCCN=C(N)N)NC(=O)C(CC(C)C)NC(=O)C(CC(C)C)NC(=O)C(Cc1ccc(O)cc1)NC(=O)C(CO)NC(=O)C(Cc1c[nH]c2ccccc12)NC(=O)C(Cc1cnc[nH]1)NC(=O)C1CCC(=O)N1 (stereo not given); 87.3% (inactive)

List the reported growth of each compound below.
1. COc1cc(C2C=C(C)N=C3SC=CN32)cc(OC)c1OC (stereo not given)
2. CC(=O)Nc1nc(C(=O)N2N=C(C)/C(=C/c3ccccc3)C2=O)cs1
3. NS(=O)(=O)c1ccc(NCC(=O)Nc2ccc(-c3nc4ccccc4s3)cc2)cc1
4. NC(=O)c1c(NC(=O)c2ccc3c(c2)OCO3)sc2c1CCC(=O)C2

1: 109% (inactive); 2: 99.9% (inactive); 3: 106% (inactive); 4: -49.8% (active)

Required: growth, one value per compound below.
1. COc1ccc(C2CC(c3cccs3)=NN2c2ccc(S(=O)(=O)NC(=O)NCc3cccc(OC)c3)cc2)cc1 (stereo not given)
2. NC(=O)NC(=O)/C=C/C(=O)OCCCl
3. CNC(C)=O

1. 113% (inactive)
2. 96.9% (inactive)
3. 95.8% (inactive)

Quick one: give measured growth for C#CCC1(c2ccc(F)c(F)c2)NS(=O)(=O)c2ccccc21 (stereo not given)
107% (inactive)
